Values from the supplement of paper PMC4371806

As shown below, each of these compounds has a reported plate-normalized OD600 growth value.
# System: Escherichia coli BW25113
# protocol description: plate-normalized OD600 growth (mean of duplicates) (OD600 (normalized)); higher = more growth (less inhibition)
# conditions used: temperature: 37°C; 24 h; 10 µM
Over roughly 1,600 compounds, “plate-normalized OD600 growth (mean of duplicates)” has its median near 0.31; the lowest 2% begin near 0.23. This excerpt belongs to a sample that is enriched for the lowest values.
measure name: plate-normalized OD600 growth

                                    compound  recorded_number
 0  O=c1cccc2n1C[C@H]1C[C@H]2CN(Cc2cccc(Cl)c2Cl)C1            0.659
 1  COC1CCCCC1NC1CCCCC1 (configuration not stated)            0.614
 2            Cc1cccc(CN2CCN(c3ccccc3)CC2)c1            0.663
 3  O=c1cccc2n1C[C@H]1C[C@H]2CN(Cc2c(Cl)cccc2Cl)C1            0.625
 4             Cc1[nH]c2ccccc2c1CCCNC1CCCCC1            0.644
 5              OCCN1CCN(Cc2ccc(F)c(F)c2)CC1            0.612
 6  COc1cc(CN2C[C@@H]3C[C@@H](C2)c2cccc(=O)n2C3)cc(I)c1O            0.634
 7      COc1ccccc1N1CCN(Cc2ccc(N(C)C)cc2)CC1            0.615
 8     Fc1ccc(CN2CCN(c3cccc(Cl)c3)CC2)c(F)c1            0.623
 9           COc1ccc(CN2C(=O)CC(=O)NC2=O)cc1            0.633
10  Cc1ccccc1CN1CCN(c2ccc([N+](=O)[O-])cc2)CC1            0.605
11         Oc1cccc(CN2CCN(c3ccc(F)cc3)CC2)c1            0.646
